- assay-system: SCRIB_1, Q14160
- Sequence (Q14160 718-814): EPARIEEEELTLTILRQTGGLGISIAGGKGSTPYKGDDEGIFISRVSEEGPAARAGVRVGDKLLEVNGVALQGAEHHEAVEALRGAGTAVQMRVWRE
- method-summary: holdup assay
- Parameters: key: below the threshold = too weak to quantify, mostly under pKd 3.1 to 4
- cond: plain residues with an end cap or a label only (N-terminal biotin on a linker: ado-ado)
Assignment: determine reported pKd for the given binders.
Answers are plain numbers.

binder="NTLNRKTTPV [CACNG8, Q8WXS5]" test_result=3.64

--- query ---
The binder identified as SLNANEVEWF [RNF130, Q86XS8] registered its pKd at 3.77
